System: TK-10 renal
Test Description: NCI tumour cell line growth inhibition, 48 h
Measured Metric: TGI

Using TK-10 renal as the test system, report measured TGI of Cc1[nH]c2ccccc2c1-c1cc(-c2cc(-c3c(C)[nH]c4ccccc34)on2)no1 . > 100 µM

Using TK-10 renal as the test system, report measured TGI of CC(=C\c1ccccc1)/C=C(\C#N)C(N)=O . > 10 µM

Using TK-10 renal as the test system, report measured TGI of Nc1nc2c(ncn2Cc2ccc(CO)cc2)c(=O)[nH]1 . > 100 µM

Using TK-10 renal as the test system, report measured TGI of CC(=O)Nc1ccc(-c2nc3cc(Cl)ccc3o2)cc1 . > 50 µM

----------
System: CCRF-CEM leukemia
Test Description: NCI tumour cell line growth inhibition, 48 h
Measured Metric: GI50

Using CCRF-CEM leukemia as the test system, report measured GI50 of C=CC(=O)N1CCC(C2CCNc3c(C(N)=O)c(-c4ccc(Oc5ccccc5)cc4)nn32)CC1 (configuration not stated) . 24.8 µM

Using CCRF-CEM leukemia as the test system, report measured GI50 of Cc1cn2c(/C=C3\C(=O)Nc4ccc(O)cc43)c(-c3ccc(Cl)cc3)nc2s1 . 29.4 µM

Using CCRF-CEM leukemia as the test system, report measured GI50 of COc1ccccc1N1CCN(CCCn2c(=O)c3c(OC)nc(C)cc3c(=O)n2-c2ccccc2)CC1 . > 100 µM

Using CCRF-CEM leukemia as the test system, report measured GI50 of COc1ccc2[nH]cc(-c3nc(-c4c[nH]c5ncccc45)cs3)c2c1 . 4.07 µM

Using CCRF-CEM leukemia as the test system, report measured GI50 of Nc1nccc2c1ccn2-c1ccc(NC(=O)c2ccc(N3CCOCC3)c(C(F)(F)F)c2)cc1 . 0.452 µM

Using CCRF-CEM leukemia as the test system, report measured GI50 of CS(=O)(=O)CCCn1c(=O)c(Oc2ccc(F)cc2F)cc2cnc(NC3CCOCC3)nc21 . > 25 µM

Using CCRF-CEM leukemia as the test system, report measured GI50 of C=Cc1c(C)c2cc3nc(cc4[nH]c(cc5nc(cc1[nH]2)C(C)=C5CCC(=O)O)c(CCC(=O)OC)c4C)[C@@]1(C)C3=CC=C(C(=O)OC)[C@H]1C(=O)OC . 0.829 µM

----------
Test system: OVCAR-5 ovarian
Test Description: NCI tumour cell line growth inhibition, 48 h
Measured Metric: TGI

Identify measured TGI corresponding to CCN(CC)C(=S)SS(=O)(=O)c1ccc(F)cc1 > 100 µM

Identify measured TGI corresponding to Cc1cn(CCCCCOC(=O)NC(CCCN=C(N)N)C(=O)O)c(=O)[nH]c1=O (stereo not given) > 100 µM

Identify measured TGI corresponding to CC(=O)Nc1ccc(-c2nc3cc(Cl)ccc3o2)cc1 > 50 µM

Identify measured TGI corresponding to NCCCNCCCCNCCCN > 100 µM

Identify measured TGI corresponding to CC1(C)OCCn2c1nc1c(N3CCOCC3)nc(-c3cnc(N)nc3)nc12 > 100 µM

----------
System: UO-31 renal
Test Description: NCI tumour cell line growth inhibition, 48 h
Measured Metric: TGI

Identify measured TGI corresponding to COc1cc(/C=C/C(=O)O)ccc1C(=O)OCc1ccccc1 > 100 µM

Identify measured TGI corresponding to CC[C@]1(Cc2ccc(OC)c(OC)c2)[C@@H]2C[C@@H](C3OCCO3)ON2O[C@H](OC2CCCC2(c2ccccc2)c2ccccc2)[C@@H]1OC(C)=O (stereo partly specified) 37.7 µM

Identify measured TGI corresponding to O=C1NC(=S)NNC12c1ccccc1-c1ccccc12 > 10 µM

Identify measured TGI corresponding to CCOP(=O)(O)C(C)(C)NC > 100 µM

Identify measured TGI corresponding to CCCCCC(/C=C/C1CCC(=O)C1CC#C[Si](C)(C)C)OCc1ccccc1 (stereo unspecified) 34.3 µM

Identify measured TGI corresponding to C[C@@]12CCC3C1C=C1C(=O)c4cc(O)ccc4C(=O)[C@]1(O2)[C@@]3(C)C=O 13.7 µM

Identify measured TGI corresponding to Cn1cc(C2=C(c3cn(C)c4cc(C(N)=O)ccc34)C(=O)NC2=O)c2ccccc21 > 20.1 µM

Identify measured TGI corresponding to NS(=O)(=O)c1ccc(N(/C=C/C(=O)C(F)(F)F)CC(=O)c2ccc(Cl)cc2)cc1 > 100 µM

Identify measured TGI corresponding to CC(=O)O[C@H]1CCC2[C@@H]3CCC4=C(O)c5nocc5C[C@]4(C)C3CC[C@@]21C (stereo partly specified) > 100 µM

Identify measured TGI corresponding to O=C(NCCCCN=c1cccccc1NCCCCNC(=O)OCc1ccccc1)OCc1ccccc1 21.4 µM

Identify measured TGI corresponding to Oc1ccc(-c2nc(-c3ccc(F)cc3)c(-c3ccc4ccccc4n3)[nH]2)cc1 26.1 µM

Identify measured TGI corresponding to c1ccc(SC2CCSc3ccccc3C2Sc2ccccc2)cc1 (stereo unspecified) > 100 µM

Identify measured TGI corresponding to CCN(CC)CCOc1ccc(/C=C2\CC3C4CC=C5C[C@@H](O)CC[C@]5(C)C4CC[C@]3(C)C2=O)cc1OC (stereo partly specified) > 100 µM

Identify measured TGI corresponding to Cn1c(=O)c2c(no[n+]2[O-])c2ccccc21 55 µM

Identify measured TGI corresponding to Cc1ccc(S(=O)(=O)N/N=C/c2oc(-c3ccncc3)c(-c3ccncc3)c2[N+](=O)[O-])cc1 > 100 µM

Identify measured TGI corresponding to O=c1n(-c2ccccc2)c(=O)n2n1C1C=CC2C2C(C1)C2(Cl)Cl (stereo unspecified) > 100 µM

Identify measured TGI corresponding to Nc1nc(N)c(N=Nc2ccc([As](=O)(O)O)cc2)c(=O)[nH]1 > 100 µM

Identify measured TGI corresponding to O=C(CC(=O)c1ccccc1)CC(O)(c1ccccc1)c1ccccc1 18.4 µM

Identify measured TGI corresponding to O=P(O)(Cc1ccccc1)c1ccccc1-c1ccccc1 > 100 µM

Identify measured TGI corresponding to C[C@H]1Oc2cc(cnc2N)-c2c(nn(C)c2C#N)CN(C)C(=O)c2ccc(F)cc21 60.2 µM

Identify measured TGI corresponding to O=C(NC(CO)Cc1ccc(Oc2cc(CC(CO)NC(=O)OCc3ccccc3)ccc2OC(=O)OCc2ccccc2)cc1)OCc1ccccc1 (stereo unspecified) > 100 µM

----------
System: HS 578T breast
Test Description: NCI tumour cell line growth inhibition, 48 h
Measured Metric: TGI

Identify measured TGI corresponding to COc1cc(-c2nn(-c3cccc(NC(=O)Nc4ccc(Cl)c(Cl)c4)c3)cc2-c2ccncc2)ccc1Cl > 50 µM

Identify measured TGI corresponding to CN(C)/C=N/n1c2ccccc2c2ccccc21 > 100 µM

Identify measured TGI corresponding to CN1C(=O)C(CC=O)(C(C)(C)C)c2ccccc21 (stereo unspecified) > 100 µM

Identify measured TGI corresponding to Cc1ccc(-c2nc3ccc([N+](=O)[O-])cc3[nH]2)cc1 > 100 µM

Identify measured TGI corresponding to COc1ccc(CN(Cc2ccc(OC)cc2)C(=O)CC2(O)C=CCC2)cc1 (stereo unspecified) > 100 µM

Identify measured TGI corresponding to C[C@@H]1C[C@](O)([C@@H](C)Cl)C(=O)O[C@@H]2CCN3CC=C(COC(=O)[C@]1(C)O)[C@H]23 > 100 µM

----------
Test system: MCF7 breast
Test Description: NCI tumour cell line growth inhibition, 48 h
Measured Metric: TGI

Identify measured TGI corresponding to Cc1cc(C)nc(NS(=O)(=O)c2ccc(NNC(=O)c3cccc4c(=O)c5ccccc5[nH]c34)cc2)n1 > 100 µM

Identify measured TGI corresponding to O=P(O)(Cc1ccccc1)c1ccccc1-c1ccccc1 > 100 µM

Identify measured TGI corresponding to O=c1[nH]c(=O)n(C2CC(O)C(CO)O2)cc1CO (stereo not drawn) > 100 µM

----------
Test system: NCI-H226 lung
Test Description: NCI tumour cell line growth inhibition, 48 h
Measured Metric: TGI

Identify measured TGI corresponding to N=c1ccn2c(n1)OC1C(O)C(CO)OC12 (stereo not given) > 719 µM

Identify measured TGI corresponding to O=C(c1ccc(Cl)cc1)c1cnc(Nc2ccccc2Cl)s1 > 64.3 µM

Identify measured TGI corresponding to COC(=O)C1C=CN(N(C)C)C2=C1C(=O)c1c(O)cccc1C2=O (stereo not given) 3.94 µM

Identify measured TGI corresponding to CCOc1ccc2nc(S/C(=C/C=C(C#N)C#N)c3ccc(C)cc3)sc2c1 42.4 µM

Identify measured TGI corresponding to Cn1c(N)c2c3c(sc2nc1=O)CCCC3 > 75 µM

Identify measured TGI corresponding to COc1ccc2oc(-c3cccnc3)cc(=O)c2c1 > 100 µM

Identify measured TGI corresponding to CC#C[P+](c1ccccc1)(c1ccccc1)c1ccccc1 14.2 µM

Identify measured TGI corresponding to CC(C)(C)NC(=O)N1N=C(c2ccccc2)C1c1ccccc1 (stereo not given) > 100 µM

Identify measured TGI corresponding to O=c1n(-c2ccccc2)c(=O)n2n1C1C=CC2C2C(C1)C2(Cl)Cl (stereo not given) > 100 µM

Identify measured TGI corresponding to Cc1cc(OCc2nnc3n2N=C(c2cc(F)c(Cl)cc2Cl)/C(=C/c2ccc(Cl)cc2)S3)ccc1Cl > 100 µM
